Source: patent US7786141B2

assay.target: M4 muscarinic receptor (Homo sapiens, UniProt P08173)
Construct: expressed in transfected cells; host or cells: CHO (M4-CHO)
Sequence (P08173 whole entry): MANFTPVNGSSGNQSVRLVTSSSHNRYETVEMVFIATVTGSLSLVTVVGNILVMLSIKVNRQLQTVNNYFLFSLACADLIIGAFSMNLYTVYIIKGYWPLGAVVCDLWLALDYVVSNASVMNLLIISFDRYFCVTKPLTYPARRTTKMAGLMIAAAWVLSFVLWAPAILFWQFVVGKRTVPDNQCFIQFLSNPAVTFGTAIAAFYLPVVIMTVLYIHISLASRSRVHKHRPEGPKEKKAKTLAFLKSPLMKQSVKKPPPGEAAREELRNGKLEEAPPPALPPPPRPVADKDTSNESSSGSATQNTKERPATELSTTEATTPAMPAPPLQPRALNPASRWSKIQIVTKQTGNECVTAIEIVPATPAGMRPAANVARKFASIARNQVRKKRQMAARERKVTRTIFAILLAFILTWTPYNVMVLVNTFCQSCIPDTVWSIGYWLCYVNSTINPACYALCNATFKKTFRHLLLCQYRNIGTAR
test.details: Functional mobilization of intracellular calcium (FLIPR) in M4-CHO cells
Assay type: cell-based
condition.notes: Table 4; 100% efficacy is the maximum response obtained with the Carbachol control

compound	assay.target	Emax
CC(=O)N[C@H]1CC2(CCN(C3CCN(C)CC3C)CC2)c2ccccc21 (some centres unmarked)	M4 muscarinic receptor (Homo sapiens, UniProt P08173)	< 25%
CCCCOC(=O)N1CCC(N2CCC3(CC2)CN(C(C)=O)c2ccccc23)CC1	M4 muscarinic receptor (Homo sapiens, UniProt P08173)	< 25%
COCCOC(=O)N1CCCC(N2CCC3(CC2)CN(C(=O)N(C)C)c2ccc(F)cc23)CC1 (centres unmarked)	M4 muscarinic receptor (Homo sapiens, UniProt P08173)	25 to 100%
CC(=O)N[C@H]1CCC2(CCN(CCCC3CCCCC3)CC2)c2ccccc21	M4 muscarinic receptor (Homo sapiens, UniProt P08173)	< 25%
CN(C)C(=O)N1CC2(CCN(C3CCN(C(=O)OCC4CC4)CC3)CC2)c2cc(F)ccc21	M4 muscarinic receptor (Homo sapiens, UniProt P08173)	25 to 100%
CCCCC(=O)N1CCC(N2CCC3(CC2)CN(C(=O)N(C)C)c2ccc(F)cc23)CC1	M4 muscarinic receptor (Homo sapiens, UniProt P08173)	< 25%
CC(CF)OC(=O)N1CC[C@@H](CN2CCC3(CC2)CN(C(=O)N(C)C)c2ccc(F)cc23)C1 (some centres unmarked)	M4 muscarinic receptor (Homo sapiens, UniProt P08173)	25 to 100%
CN(C)C(=O)N[C@H]1CC2(CCN(CCC3CC4CC[C@@H]3C4)CC2)c2ccccc21 (some centres unmarked)	M4 muscarinic receptor (Homo sapiens, UniProt P08173)	< 25%
COc1cc2c(cc1OC)C1(CCN(C3CC(C)(C)CC(C)(C)C3)CC1)CC2NC(C)=O (centres unmarked)	M4 muscarinic receptor (Homo sapiens, UniProt P08173)	< 25%
CC(=O)N[C@H]1CCC2(CCN(CCC3CC4CCC3C4)CC2)c2ccccc21 (some centres unmarked)	M4 muscarinic receptor (Homo sapiens, UniProt P08173)	< 25%
CN(C)C(=O)N1CC2(CCN(C3CCN(C(=O)c4ccco4)CC3)CC2)c2cc(F)ccc21	M4 muscarinic receptor (Homo sapiens, UniProt P08173)	25 to 100%
COc1ccc([C@@H](C)N[C@H]2CC3(CCN(CC4CC5C=CC4C5)CC3)c3cc(Cl)ccc32)cc1 (some centres unmarked)	M4 muscarinic receptor (Homo sapiens, UniProt P08173)	25 to 100%
CC(=O)N1CC2(CCN(C3CCC3)CC2)c2cc(F)ccc21	M4 muscarinic receptor (Homo sapiens, UniProt P08173)	< 25%
CN(C)C(=O)N1CC2(CCN(C3CCN(C(=O)c4ccsc4)CC3)CC2)c2cc(F)ccc21	M4 muscarinic receptor (Homo sapiens, UniProt P08173)	< 25%
COCCN1CC2(CCN([C@@H]3C[C@H]4CCC3C4)CC2)c2cc(C)ccc21	M4 muscarinic receptor (Homo sapiens, UniProt P08173)	25 to 100%
C#CCCC(=O)N1CCC(N2CCC3(CC2)CN(C(=O)N(C)C)c2ccc(F)cc23)CC1	M4 muscarinic receptor (Homo sapiens, UniProt P08173)	< 25%
CCOC(=O)N1CCC(CN2CCC3(CC2)CN(C(C)=O)c2ccc(C(F)(F)F)cc23)CC1	M4 muscarinic receptor (Homo sapiens, UniProt P08173)	25 to 100%
COc1cc2c(cc1OC)C1(CCN(CC3CCCCC3)CC1)C[C@@H]2NC(C)=O	M4 muscarinic receptor (Homo sapiens, UniProt P08173)	< 25%
Cc1ccc2c(c1)C1(CCN(C3CC4CCC3C4)CC1)CN2C(=O)c1snnc1C (centres unmarked)	M4 muscarinic receptor (Homo sapiens, UniProt P08173)	< 25%
CCOC(=O)N1CCC(CN2CCC3(CC2)CN(C(C)=O)c2c(F)cc(F)cc23)CC1	M4 muscarinic receptor (Homo sapiens, UniProt P08173)	25 to 100%
CC(=O)NC1CCC2(CCN(CCC3CCCN(C(C)=O)C3)CC2)c2ccccc21 (centres unmarked)	M4 muscarinic receptor (Homo sapiens, UniProt P08173)	< 25%
CC(=O)CN1CC2(CCN([C@@H]3C[C@H]4CCC3C4)CC2)c2cc(C)ccc21	M4 muscarinic receptor (Homo sapiens, UniProt P08173)	25 to 100%
COc1cc2c(cc1OC)C1(CCN(C3CCCCC3)CC1)C[C@@H]2NC(C)=O	M4 muscarinic receptor (Homo sapiens, UniProt P08173)	< 25%
CC(=O)N1CC2(CCN(C3CCN(c4cncc(C5CC5)n4)CC3)CC2)c2ccccc21	M4 muscarinic receptor (Homo sapiens, UniProt P08173)	< 25%
CN(C)C(=O)N1CC2(CCN(C3CCCN(C(=O)OCC(F)F)CC3)CC2)c2cc(F)ccc21 (centres unmarked)	M4 muscarinic receptor (Homo sapiens, UniProt P08173)	25 to 100%
CC(=O)N[C@H]1CCC2(CCN(CC3CCOC3)CC2)c2ccccc21 (some centres unmarked)	M4 muscarinic receptor (Homo sapiens, UniProt P08173)	25 to 100%
Cc1ccc2c(c1)/C(=N/O)CC21CCN(CC2C[C@H]3CCC2C3)CC1 (some centres unmarked)	M4 muscarinic receptor (Homo sapiens, UniProt P08173)	25 to 100%
CC(=O)N1CC2(CCN(C3CCN(c4nccs4)CC3)CC2)c2ccccc21	M4 muscarinic receptor (Homo sapiens, UniProt P08173)	< 25%
CN(C)C(=O)N1CC2(CCN(C3CCN(C(=O)c4ccnnc4)CC3)CC2)c2cc(F)ccc21	M4 muscarinic receptor (Homo sapiens, UniProt P08173)	25 to 100%
CC(C)N(C(=O)N[C@H]1CC2(CCN(C3CC4CC[C@@H]3C4)CC2)c2ccccc21)C(C)C (some centres unmarked)	M4 muscarinic receptor (Homo sapiens, UniProt P08173)	25 to 100%
CC(=O)N1CC2(CCN(C3CCN(C(=O)O[C@H]4CCOC4)CC3)CC2)c2ccccc21	M4 muscarinic receptor (Homo sapiens, UniProt P08173)	< 25%
CCOC(=O)N1CCC(CN2CCC3(CC2)CN(C(C)=O)c2ccc(C(C)C)cc23)CC1	M4 muscarinic receptor (Homo sapiens, UniProt P08173)	25 to 100%
